Assign viability, T/C to each entry below.
- Tested on: 885512-296-R-J2-PDC complex spheroid viability
- Experimental protocol: Anticancer human tumor 885512-296-R-J2-PDC patient-derived breast carcinoma cell line growth inhibition [GQUAD]
- Settings: second compound 1 µM; first compound 0.0316 µM; stronger effect = lower value

Form field viability, T/C, entry Cc1[nH]c2ccccc2c1CCNCc1ccc(/C=C/C(=O)NO)cc1 + CN(C)c1ccc(Nc2c3ccc(NC(=O)CCN4CCCC4)cc3nc3cc(NC(=O)CCN4CCCC4)ccc23)cc1 : 48%

Form field viability, T/C, entry O=c1[nH]cc(F)c(=O)[nH]1 + Cc1cnc(CNC(=O)c2c(=O)c3ccc(N4CCCN(C)CC4)nc3n3c2sc2ccccc23)cn1 : 29.9%

Form field viability, T/C, entry COc1cc(C2c3cc4c(cc3C(OC3OC5COC(C)OC5C(O)C3O)C3COC(=O)C23)OCO4)cc(OC)c1O (stereo unspecified) + Cc1[nH]c2ccc(F)cc2c1-c1nc2c3cccnc3c3ncccc3c2[nH]1 : 70.5%

Form field viability, T/C, entry O=c1[nH]cc(F)c(=O)[nH]1 + CN(C)c1ccc(Nc2c3ccc(NC(=O)CCN4CCCC4)cc3nc3cc(NC(=O)CCN4CCCC4)ccc23)cc1 : 96.4%

Form field viability, T/C, entry O=C(NO)c1cnc(N2CCN(S(=O)(=O)c3ccc4ccccc4c3)CC2)nc1 + Cc1cnc(CNC(=O)c2c(=O)c3ccc(N4CCCN(C)CC4)nc3n3c2sc2ccccc23)cn1 : 19.3%

Form field viability, T/C, entry CC1COCCN1c1cc(C2(O)CC3CCC(C2)O3)c2cnn(-c3ccn[nH]3)c2n1 (stereo unspecified) + CN(C)c1ccc(Nc2c3ccc(NC(=O)CCN4CCCC4)cc3nc3cc(NC(=O)CCN4CCCC4)ccc23)cc1 : 29.2%

---

- System: 885512-296-R-J2-PDC complex spheroid viability
- Experimental protocol: Anticancer human tumor 885512-296-R-J2-PDC cell line growth inhibition [GQUAD];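 note: spheroids exposed to the compounds for one week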
- Settings: curve of first compound; second compound 1 µM
Assign IC50 to each entry below.
I only need the number, in µM, no unit after it.

Value sought: IC50, system 885512-296-R-J2-PDC complex spheroid viability, item Cc1[nH]c2ccccc2c1CCNCc1ccc(/C=C/C(=O)NO)cc1 + CN(C)c1ccc(Nc2c3ccc(NC(=O)CCN4CCCC4)cc3nc3cc(NC(=O)CCN4CCCC4)ccc23)cc1 . Result: 0.0308

Value sought: IC50, system 885512-296-R-J2-PDC complex spheroid viability, item O=C(c1cc(Cc2n[nH]c(=O)c3ccccc23)ccc1F)N1CCN(C(=O)C2CC2)CC1 + CN(C)c1ccc(Nc2c3ccc(NC(=O)CCN4CCCC4)cc3nc3cc(NC(=O)CCN4CCCC4)ccc23)cc1 . Result: 7.31

Value sought: IC50, system 885512-296-R-J2-PDC complex spheroid viability, item COc1cccc2c1C(=O)c1c(O)c3c(c(O)c1C2=O)CC(O)(C(=O)CO)CC3OC1CC(N)C(O)C(C)O1 (stereo not given) + Cc1[nH]c2ccc(F)cc2c1-c1nc2c3cccnc3c3ncccc3c2[nH]1 . Result: 0.058

Value sought: IC50, system 885512-296-R-J2-PDC complex spheroid viability, item CC(C)(O)C1CCC(Nc2ccc3ncc(-c4cccc(C(F)(F)F)c4)n3n2)CC1 (stereo not given) + CN(C)c1ccc(Nc2c3ccc(NC(=O)CCN4CCCC4)cc3nc3cc(NC(=O)CCN4CCCC4)ccc23)cc1 . Result: 1.55

---

Assign viability, T/C to each entry below.
- System: 885512-296-R-J2-PDC complex spheroid viability
- Experimental protocol: Anticancer human tumor 885512-296-R-J2-PDC cell line growth inhibition [GQUAD];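 note: spheroids exposed to the compounds for one week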;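 for viability, T/C: percent of tumor spheroid viability relative to DMSO vehicle control wells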
- Settings: second compound 3.16 µM; first compound 0.0316 µM; stronger effect = lower value
I only need the number, in %, no unit after it.

Form field viability, T/C, entry C#Cc1c(F)ccc2cc(O)cc(-c3ncc4c(N5CC6CCC(C5)N6)nc(OCC56CCCN5CC(F)C6)nc4c3F)c12 (stereo not given) + Cc1[nH]c2ccc(F)cc2c1-c1nc2c3cccnc3c3ncccc3c2[nH]1 : 2.98

Form field viability, T/C, entry O=C(NO)c1cnc(N2CCN(S(=O)(=O)c3ccc4ccccc4c3)CC2)nc1 + CN(C)c1ccc(Nc2c3ccc(NC(=O)CCN4CCCC4)cc3nc3cc(NC(=O)CCN4CCCC4)ccc23)cc1 : 60.2

Form field viability, T/C, entry CC[C@@]1(O)C(=O)OCc2c1cc1n(c2=O)Cc2cc3c(CN(C)C)c(O)ccc3nc2-1 + Cc1[nH]c2ccc(F)cc2c1-c1nc2c3cccnc3c3ncccc3c2[nH]1 : 6.97

Form field viability, T/C, entry Cn1ncnc1[C@H]1c2n[nH]c(=O)c3cc(F)cc(c23)N[C@@H]1c1ccc(F)cc1 + Cc1[nH]c2ccc(F)cc2c1-c1nc2c3cccnc3c3ncccc3c2[nH]1 : 15.6

Form field viability, T/C, entry CC(C)(O)C1CCC(Nc2ccc3ncc(-c4cccc(C(F)(F)F)c4)n3n2)CC1 (stereo not given) + Cc1cnc(CNC(=O)c2c(=O)c3ccc(N4CCCN(C)CC4)nc3n3c2sc2ccccc23)cn1 : 27.7

---

- Tested on: 885512-296-R-J2-PDC complex spheroid viability
- Experimental protocol: Anticancer human tumor 885512-296-R-J2-PDC cell line growth inhibition [GQUAD]; active = viability on the fitted dose curve at most 10% of control; inactive = the rest;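 note: spheroids exposed to the compounds for one week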
- Settings: second compound 3.16 µM; first compound 3.16 µM
Select the correct class. Options are true (active), false (inactive) and nothing else.

[ask] Kindly provide the recorded test outcome for the following compound: C=CCn1c(=O)c2cnc(Nc3ccc(N4CCN(C)CC4)cc3)nc2n1-c1cccc(C(C)(C)O)n1 + Cc1[nH]c2ccc(F)cc2c1-c1nc2c3cccnc3c3ncccc3c2[nH]1
[reply] true

[ask] Kindly provide the recorded test outcome for the following compound: CC1COCCN1c1cc(C2(O)CC3CCC(C2)O3)c2cnn(-c3ccn[nH]3)c2n1 (stereo not given) + Cc1[nH]c2ccc(F)cc2c1-c1nc2c3cccnc3c3ncccc3c2[nH]1
[reply] true

[ask] Kindly provide the recorded test outcome for the following compound: O=c1[nH]cc(F)c(=O)[nH]1 + CN(C)c1ccc(Nc2c3ccc(NC(=O)CCN4CCCC4)cc3nc3cc(NC(=O)CCN4CCCC4)ccc23)cc1
[reply] false

[ask] Kindly provide the recorded test outcome for the following compound: CC1COCCN1c1cc(C2(S(C)(=N)=O)CC2)nc(-c2ccnc3[nH]ccc23)n1 (stereo not given) + CN(C)c1ccc(Nc2c3ccc(NC(=O)CCN4CCCC4)cc3nc3cc(NC(=O)CCN4CCCC4)ccc23)cc1
[reply] true

[ask] Kindly provide the recorded test outcome for the following compound: CC1COCCN1c1cc(-c2ccnn2C)c2ccnc(-c3ccn[nH]3)c2n1 (stereo not given) + Cc1cnc(CNC(=O)c2c(=O)c3ccc(N4CCCN(C)CC4)nc3n3c2sc2ccccc23)cn1
[reply] true

[ask] Kindly provide the recorded test outcome for the following compound: Cc1cccc(N(C)C(=O)C2C(O)CCN2c2nc(C)cc(C(F)(F)F)c2C#N)c1 (stereo not given) + Cc1[nH]c2ccc(F)cc2c1-c1nc2c3cccnc3c3ncccc3c2[nH]1
[reply] false

[ask] Kindly provide the recorded test outcome for the following compound: COc1ncnc(C2CC2)c1-c1ncc2cnn(Cc3ccc(-c4nc(C(F)(F)F)cn4C(C)C)cc3)c2n1 + Cc1cnc(CNC(=O)c2c(=O)c3ccc(N4CCCN(C)CC4)nc3n3c2sc2ccccc23)cn1
[reply] false

[ask] Kindly provide the recorded test outcome for the following compound: O=C(NO)c1cnc(N2CCN(S(=O)(=O)c3ccc4ccccc4c3)CC2)nc1 + Cc1[nH]c2ccc(F)cc2c1-c1nc2c3cccnc3c3ncccc3c2[nH]1
[reply] true

[ask] Kindly provide the recorded test outcome for the following compound: COc1cc(C2c3cc4c(cc3C(OC3OC5COC(C)OC5C(O)C3O)C3COC(=O)C23)OCO4)cc(OC)c1O (stereo not given) + Cc1[nH]c2ccc(F)cc2c1-c1nc2c3cccnc3c3ncccc3c2[nH]1
[reply] true

[ask] Kindly provide the recorded test outcome for the following compound: CC1COCCN1c1cc(C2(O)CC3CCC(C2)O3)c2cnn(-c3ccn[nH]3)c2n1 (stereo not given) + Cc1cnc(CNC(=O)c2c(=O)c3ccc(N4CCCN(C)CC4)nc3n3c2sc2ccccc23)cn1
[reply] true

[ask] Kindly provide the recorded test outcome for the following compound: COc1cccc2c1C(=O)c1c(O)c3c(c(O)c1C2=O)CC(O)(C(=O)CO)CC3OC1CC(N)C(O)C(C)O1 (stereo not given) + Cc1[nH]c2ccc(F)cc2c1-c1nc2c3cccnc3c3ncccc3c2[nH]1
[reply] true

[ask] Kindly provide the recorded test outcome for the following compound: COc1ccc([C@@H](O)c2cc(-c3ncnc4cc(N5CCOCC5)ccc34)c(F)cc2Cl)nn1 + Cc1[nH]c2ccc(F)cc2c1-c1nc2c3cccnc3c3ncccc3c2[nH]1
[reply] true

[ask] Kindly provide the recorded test outcome for the following compound: COc1ccc([C@@H](O)c2cc(-c3ncnc4cc(N5CCOCC5)ccc34)c(F)cc2Cl)nn1 + CN(C)c1ccc(Nc2c3ccc(NC(=O)CCN4CCCC4)cc3nc3cc(NC(=O)CCN4CCCC4)ccc23)cc1
[reply] false

[ask] Kindly provide the recorded test outcome for the following compound: CC1COCCN1c1cc(C2(S(C)(=N)=O)CC2)nc(-c2ccnc3[nH]ccc23)n1 (stereo not given) + Cc1[nH]c2ccc(F)cc2c1-c1nc2c3cccnc3c3ncccc3c2[nH]1
[reply] true

[ask] Kindly provide the recorded test outcome for the following compound: COc1cccc2c1C(=O)c1c(O)c3c(c(O)c1C2=O)CC(O)(C(=O)CO)CC3OC1CC(N)C(O)C(C)O1 (stereo not given) + CN(C)c1ccc(Nc2c3ccc(NC(=O)CCN4CCCC4)cc3nc3cc(NC(=O)CCN4CCCC4)ccc23)cc1
[reply] true

[ask] Kindly provide the recorded test outcome for the following compound: COc1ccc([C@@H](O)c2cc(-c3ncnc4cc(N5CCOCC5)ccc34)c(F)cc2Cl)nn1 + Cc1cnc(CNC(=O)c2c(=O)c3ccc(N4CCCN(C)CC4)nc3n3c2sc2ccccc23)cn1
[reply] false

[ask] Kindly provide the recorded test outcome for the following compound: O=c1[nH]cc(F)c(=O)[nH]1 + Cc1[nH]c2ccc(F)cc2c1-c1nc2c3cccnc3c3ncccc3c2[nH]1
[reply] false

[ask] Kindly provide the recorded test outcome for the following compound: C=CC(=O)N1CCN(c2nc(=O)n(-c3c(C)ccnc3C(C)C)c3nc(-c4c(O)cccc4F)c(F)cc23)C(C)C1 (stereo not given) + CN(C)c1ccc(Nc2c3ccc(NC(=O)CCN4CCCC4)cc3nc3cc(NC(=O)CCN4CCCC4)ccc23)cc1
[reply] false

[ask] Kindly provide the recorded test outcome for the following compound: COc1ncnc(C2CC2)c1-c1ncc2cnn(Cc3ccc(-c4nc(C(F)(F)F)cn4C(C)C)cc3)c2n1 + CN(C)c1ccc(Nc2c3ccc(NC(=O)CCN4CCCC4)cc3nc3cc(NC(=O)CCN4CCCC4)ccc23)cc1
[reply] false

[ask] Kindly provide the recorded test outcome for the following compound: O=C(c1cc(Cc2n[nH]c(=O)c3ccccc23)ccc1F)N1CCN(C(=O)C2CC2)CC1 + Cc1cnc(CNC(=O)c2c(=O)c3ccc(N4CCCN(C)CC4)nc3n3c2sc2ccccc23)cn1
[reply] false
